# TGI per record follows
system: T-47D breast; test: NCI tumour cell line growth inhibition, 48 h

structure_smiles: c1cc(CSP234N5CCN2CCN3CCN4CC5)cc(CSP234N5CCN2CCN3CCN4CC5)c1
TGI: > 100 µM

structure_smiles: N#CCCN(C(=O)Nc1ccc(NC(=O)N(CCC#N)c2ccccc2)cc1)c1ccccc1
TGI: > 100 µM

structure_smiles: COC(=O)[C@]12CC[C@@H](C)[C@H](C)[C@@H]1C1=CC[C@@H]3[C@@]4(C)C[C@@H](OC(C)=O)[C@H](OC(C)=O)[C@@](C)(COC(C)=O)[C@@H]4[C@H](O)C[C@@]3(C)[C@]1(C)CC2
TGI: 8.04 µM

structure_smiles: O=C(Nc1c[nH]c(=O)[nH]c1=O)Oc1ccccc1
TGI: > 100 µM

structure_smiles: COc1ccc2c(Cl)cc(NC(=S)Nc3ccccc3)nc2c1
TGI: 45.3 µM

structure_smiles: Cc1cccc(NC(=S)NNC(=O)c2cc(-c3ccccc3)nc3ccccc23)c1
TGI: > 100 µM

**Q:** State the recorded TGI for this entry: `Cc1ccc2nc(CN(CCN(Cc3nc4ccc(C)cc4[nH]3)Cc3nc4ccc(C)cc4[nH]3)Cc3nc4ccc(C)cc4[nH]3)[nH]c2c1`
**A:** 3.12 µM

**Q:** Ok, now `COc1ccc2c(c1O)[C@@]13CCCC=C1[C@@H](C2)N(C)CC3`
**A:** > 100 µM

**Q:** What would you report for `COc1ccccc1NC(=O)c1sc2ncn(CCOc3ccccc3)c(=O)c2c1C` ?
**A:** > 50 µM

----------
tested on: SK-OV-3 ovarian; experiment: NCI tumour cell line growth inhibition, 48 h; in the data active = GI50 below about 0.43 µM; inactive = the rest
Entry note: the call must match one of yes (1) (active), no (0) (inactive)

Some entries whose results are on file:
molecule: O=C(CC1(O)C(=O)Nc2ccc(Cl)cc21)c1ccc(C(=O)NCC2CCC3(CC2)OOC2(CCCCC2)OO3)cc1 (configuration not stated)
class_name: no (0)
--
molecule: Cc1ccc2nc(CN(CCN(Cc3nc4ccc(C)cc4[nH]3)Cc3nc4ccc(C)cc4[nH]3)Cc3nc4ccc(C)cc4[nH]3)[nH]c2c1
class_name: no (0)
--
molecule: Cc1ccc(C)c(N2CCN(c3ccncc3N)CC2)c1
class_name: no (0)
--
molecule: Cc1cnc(C(=O)Nc2nc3ccc(S(=O)(=O)Nc4ccc(C(C)(C)C)cc4)cc3[nH]2)cn1
class_name: no (0)
--
molecule: Cc1c2ccncc2c(C)c2c1[nH]c1ccc(O)cc12
class_name: no (0)
--
molecule: COc1cc(F)c(F)c(Nc2ccc(I)cc2F)c1NS(=O)(=O)C1(CC(O)CO)CC1 (configuration not stated)
class_name: no (0)
--
molecule: CCOC(=O)c1c(CN2CCCCC2)nc2ccc(Cl)cc2c1-c1ccccc1
class_name: no (0)
--
molecule: COc1cc(C(=O)/C=C/c2c[nH]c3ccccc23)cc(OC)c1OC
class_name: yes (1)
--
molecule: Oc1ccccc1/C=N\NC(=S)Nc1ccc(F)cc1
class_name: no (0)
--
molecule: COc1ccccc1NC(=O)c1sc2ncn(CCOc3ccccc3)c(=O)c2c1C
class_name: no (0)

**Q:** # lookup: test call for C=C(C)[C@@H]1CC[C@]2(C(=O)O)CC[C@]3(C)[C@H](CC[C@@H]4[C@@]5(C)CCC(N)C(C)(C)[C@@H]5CC[C@]43C)[C@@H]12 (some centres not stated)
**A:** no (0)

**Q:** Also check `C=C(CN1CCN(c2cc(C(F)(F)F)cc(C(F)(F)F)c2)CC1)c1ccc(C(=O)Nc2ccccc2N)cc1`
**A:** no (0)
